Test: Food effect study (high-fat meal), atogepant IR tablet: plasma PK
Assay type: in vivo, human
Conditions: both sexes, human, plasma, oral, 60 mg, Study Intervention A: 1 × 60 mg IR tablet, fed; read-out: AUC0-t
value-type: AUC(0-t) (ng·h/mL)
Number only, in ng·h/mL; omit the unit.

Q: Find the recorded AUC(0-t) belonging to C[C@@H]1[C@H](c2c(F)ccc(F)c2F)C[C@H](NC(=O)c2cnc3c(c2)C[C@@]2(C3)C(=O)Nc3ncccc32)C(=O)N1CC(F)(F)F and report it.
Ans: 3090

====

Assay: Hepatic impairment study: atogepant plasma PK
Type: in vivo, human
Settings: human, plasma, po, 60 mg, severe hepatic impairment, single 60 mg oral dose; read-out: Vz/F
value-type: Vd/F (L)
Supply the numeric figure in L, leaving out any unit text.

Q: Give the measured Vd/F of C[C@@H]1[C@H](c2c(F)ccc(F)c2F)C[C@H](NC(=O)c2cnc3c(c2)C[C@@]2(C3)C(=O)Nc3ncccc32)C(=O)N1CC(F)(F)F .
Ans: 177

====

Assay: Clinical pharmacokinetics of atogepant after oral administration (summary)
Assay type: in vivo, human
Conditions: human, plasma; after oral administration; read-out: mean apparent volume distribution (Vz/F)
value-type: Vd/F

Q: Look at this molecule and give its reported Vd/F. C[C@@H]1[C@H](c2c(F)ccc(F)c2F)C[C@H](NC(=O)c2cnc3c(c2)C[C@@]2(C3)C(=O)Nc3ncccc32)C(=O)N1CC(F)(F)F
Ans: ~282 L

====

Assay: Plasma protein binding in human plasma
Assay type: in vitro ADME
Settings: human plasma
value-type: fraction unbound

Q: Recorded fraction unbound of C[C@@H]1[C@H](c2c(F)ccc(F)c2F)C[C@H](NC(=O)c2cnc3c(c2)C[C@@]2(C3)C(=O)Nc3ncccc32)C(=O)N1CC(F)(F)F [atogepant] , please.
Ans: ~0.047

====

Experiment: Atogepant-rifampin drug interaction study: atogepant plasma PK
Assay type: in vivo, human
Details: both sexes, human, plasma, oral, Treatment B2: atogepant 60 mg + multiple-dose rifampin 600 mg
value-type: half-life (h)
State just the number; it will be interpreted in h.

Q: Suppose we examine the compound C[C@@H]1[C@H](c2c(F)ccc(F)c2F)C[C@H](NC(=O)c2cnc3c(c2)C[C@@]2(C3)C(=O)Nc3ncccc32)C(=O)N1CC(F)(F)F ; what half-life value has been reported?
Ans: 2.39

====

Test: Atogepant-topiramate interaction study, cohort 2: topiramate steady-state PK
Assay type: in vivo, human
Conditions: both sexes, human, plasma, Topiramate and Atogepant; read-out: AUC0-tau,ss Geometric LSM
value-type: AUC (ng·h/mL)
Provide the reading as a plain figure in ng·h/mL.

Q: Which AUC value is on record for CC1(C)O[C@@H]2[C@@H](CO[C@@]3(COS(N)(=O)=O)OC(C)(C)O[C@@H]23)O1 [topiramate] ?
Ans: 70300

====

Experiment: Atogepant-itraconazole drug interaction study: atogepant plasma PK
Assay type: in vivo, human
Conditions: both sexes, human, plasma, oral; Treatment B: atogepant 60 mg + steady state itraconazole 200 mg
value-type: half-life (h)
Please state the figure in h; there is no need to write the unit.

Q: Which half-life value belongs to C[C@@H]1[C@H](c2c(F)ccc(F)c2F)C[C@H](NC(=O)c2cnc3c(c2)C[C@@]2(C3)C(=O)Nc3ncccc32)C(=O)N1CC(F)(F)F ?
Ans: 14.9

Values were extracted from patent US12350259B2.
